Biological target: T1, human cloned SST-R2 (human, UniProt P30874 1-369)
T1 construct: whole, on cells; Assayed as membrane preparations of CHO cells expressing the cloned receptor, not as intact cells; also called hSST-R2; human SST-R2
T1 sequence (P30874 whole entry): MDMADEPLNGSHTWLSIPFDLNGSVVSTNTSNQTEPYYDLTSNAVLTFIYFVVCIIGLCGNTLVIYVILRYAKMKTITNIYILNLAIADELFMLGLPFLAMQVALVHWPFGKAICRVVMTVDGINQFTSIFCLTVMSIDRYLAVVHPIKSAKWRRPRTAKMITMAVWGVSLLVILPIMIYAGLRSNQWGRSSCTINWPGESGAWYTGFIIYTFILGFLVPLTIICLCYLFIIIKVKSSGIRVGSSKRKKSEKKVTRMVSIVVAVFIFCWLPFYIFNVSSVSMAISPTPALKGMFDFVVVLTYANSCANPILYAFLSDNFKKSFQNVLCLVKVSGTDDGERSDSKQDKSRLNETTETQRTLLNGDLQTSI
Assay: inhibition of 125I-Tyr11-SRIF-14 binding to membranes of CHO cells expressing cloned human SST-R2
pIC50: −log10 of the molar value. *1 amine or outer side, *2 acyl side, *3 side chain or, on linkers, in order; H or OH if unused. Where no end group is shown, it is not given here. [ ]: non-standard residue; d: D form. ReO = oxorhenium(V), one metal core binding both hemi-chelators, from trichlorooxobis(triphenylphosphine)rhenium(V); N(2-Aminoethyl)Gly = O=C(CN(CCN[*:3])[*:1])[*:2]
Cut-off 8 on pIC50, inclusive. At or above means 1; below means -1.

Completed entries (count: 10):
Decide: pIC50 of CXFWWKTFG (L-Cys at 1; beta-Ala at 2 (written X); D-Trp at 5; GlyN2 building unit at 9 with D-Cys on its omega-amine; C-terminal amide; ReO (oxorhenium(V)) chelated by the two Cys closes the ring) [ReO-GF-38] >= 8?
-1

Quick check, pIC50 >= 8? CFW[dW]KTF[N(2-Aminoethyl)Gly](dC)-NH2 (bridge (positions not given here) via ReO; not fully specified (bridges); also: N2S2 oxorhenium(V) chelate via the two Cys) [ReO-GF-46]
-1

Is the recorded value of pIC50 equal to or greater than 8 for this binder? CXFWWKTFG (not fully specified; D-Cys at 1; beta-Ala at 2 (written X); D-Trp at 5; GlyN2 building unit at 9 with D-Cys on its omega-amine; C-terminal amide; ReO (oxorhenium(V)) chelated by the two Cys closes the ring) [ReO-GF-40]
-1

Exam item: decide whether the reported pIC50 for CXFWWKTFG (L-Cys at 1; beta-Ala at 2 (written X); D-Trp at 5; GlyN6 building unit at 9 with L-Cys on its omega-amine; C-terminal amide; ReO (oxorhenium(V)) chelated by the two Cys closes the ring) [ReO-GF-5] is at least 8.
-1

Hello, I need to know if CXFWWKTFG (L-Cys at 1; GABA at 2 (written X); D-Trp at 5; GlyN6 building unit at 9 with D-Cys on its omega-amine; C-terminal amide; ReO (oxorhenium(V)) chelated by the two Cys closes the ring, also called ReO-GF-02; ReO-LCys*-GABA-Phe-Trp-DTrp-Lys-Thr-Phe-GlyN6(DCys*)-NH2) [ReO-GF-2] has measured pIC50 not below 8. Thanks!
1

Hi team, for CGFWWKTFG (not fully specified; D-Cys at 1; D-Trp at 5; GlyN2 building unit at 9 with D-Cys on its omega-amine; C-terminal amide; ReO (oxorhenium(V)) chelated by the two Cys closes the ring) [ReO-GF-44] , is the recorded pIC50 at or above 8?
-1

Is pIC50 at least 8? Consider CFWWKTFG (not fully specified; D-Cys at 1; D-Trp at 4; GlyN2 building unit at 8 with D-Cys on its omega-amine; C-terminal amide; ReO (oxorhenium(V)) chelated by the two Cys closes the ring) [ReO-GF-48]
-1

Quick check, pIC50 >= 8? CXFWWKTFG (not fully specified; D-Cys at 1; beta-Ala at 2 (written X); D-Trp at 5; GlyN3 building unit at 9 with D-Cys on its omega-amine; C-terminal amide; ReO (oxorhenium(V)) chelated by the two Cys closes the ring) [ReO-GF-24]
-1

Has CXFWWKTFG (L-Cys at 1; beta-Ala at 2 (written X); D-Trp at 5; GlyN3 building unit at 9 with L-Cys on its omega-amine; C-terminal amide; ReO (oxorhenium(V)) chelated by the two Cys closes the ring, also called ReO-LCys*-βAla-Phe-Trp-DTrp-Lys-Thr-Phe-GlyN3(LCys*)-NH2) [ReO-GF-21] a recorded pIC50 greater than or equal to 8?
1

Could you please find out whether CXFWWKTFG (D-Cys at 1; GABA at 2 (written X); D-Trp at 5; GlyN3 building unit at 9 with L-Cys on its omega-amine; C-terminal amide; ReO (oxorhenium(V)) chelated by the two Cys closes the ring) [ReO-GF-19] has pIC50 that meets 8 or exceeds it?
-1

Further cases:
Could you please find out whether CXFWWKTFG (not fully specified; D-Cys at 1; beta-Ala at 2 (written X); D-Trp at 5; GlyN6 building unit at 9 with D-Cys on its omega-amine; C-terminal amide; ReO (oxorhenium(V)) chelated by the two Cys closes the ring) [ReO-GF-8] has pIC50 that meets 8 or exceeds it?
1

The values you see were collected from patent US20050226813A1.
